src = ChEMBL document CHEMBL1201861

- System: NBsusSR;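 further: growth inhibition of the human cell line, read out with a cell viability assay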
- experiment_summary: cells
- Assay type: functional, cell-based
- details: Homo sapiens
- Description: SANGER: Inhibition of human NBsusSR cell growth in a cell viability assay.
Listing of recorded IC50 by entry.
measurement_type: IC50

CCCS(=O)(=O)Nc1ccc(F)c(C(=O)c2c[nH]c3ncc(Cl)cc23)c1F: > 10 µM
COc1cc(Nc2c(C#N)cnc3cc(OCCCN4CCN(C)CC4)c(OC)cc23)c(Cl)cc1Cl: > 2 µM

---

- Tested on: KLE
- experiment_summary: cells
- Type: functional, cell-based
- details: Homo sapiens
- Description: SANGER: Inhibition of human KLE cell growth in a cell viability assay.
pIC50: −log10 of the molar value.
Listing of recorded pIC50 by entry.
measurement_type: pIC50

CCNC(=O)c1noc(-c2cc(C(C)C)c(O)cc2O)c1-c1ccc(CN2CCOCC2)cc1: 6.79
CC[C@]1(O)C[C@@H]2CN(CCc3c([nH]c4ccccc34)[C@@](C(=O)OC)(c3cc4c(cc3OC)N(C)[C@H]3[C@@](O)(C(=O)OC)[C@H](OC(C)=O)[C@]5(CC)C=CCN6CC[C@]43[C@@H]65)C2)C1: < 7.00
Cc1nc(Nc2ncc(C(=O)Nc3c(C)cccc3Cl)s2)cc(N2CCN(CCO)CC2)n1: 6.95
CC(=O)c1c(C)c2cnc(Nc3ccc(N4CCNCC4)cn3)nc2n(C2CCCC2)c1=O: < 5.40
C[C@]1(c2nc3c(C(N)=O)cccc3[nH]2)CCCN1: < 5.30
O=c1[nH]c2ccccc2n1C1CCN(Cc2ccc(-c3nc4cc5[nH]cnc5cc4nc3-c3ccccc3)cc2)CC1: < 5.59

---

- Test system: MSTO-211H
- experiment_summary: cells
- Type: functional, cell-based
- details: Homo sapiens
- Description: SANGER: Inhibition of human MSTO-211H cell growth in a cell viability assay.
pIC50: −log10 of the molar value.
measurement_type: pIC50

CCNC(=O)c1noc(-c2cc(C(C)C)c(O)cc2O)c1-c1ccc(CN2CCOCC2)cc1: < 6.59
N#C/C(=C1/Nc2ccccc2S1)c1ccnc(NCCc2cccnc2)n1: < 5.10
NC(=O)c1ncn([C@@H]2O[C@H](COP(=O)(O)O)[C@@H](O)[C@H]2O)c1N: 2.76
CCNc1cc(N[C@H]2CC[C@@H](O)CC2)nc(Nc2ccc3c(ccn3Cc3ccccc3)c2)n1: < 5.29
Cn1cc(/C=C2\C(=O)Nc3cccnc32)c2ccccc21: < 5.70
Cc1[nH]c(/C=C2\C(=O)Nc3ccc(S(=O)(=O)Cc4c(Cl)cccc4Cl)cc32)c(C)c1C(=O)N1CCC[C@@H]1CN1CCCC1: < 5.70
CC(O)(CS(=O)(=O)c1ccc(F)cc1)C(=O)Nc1ccc(C#N)c(C(F)(F)F)c1 (configuration not stated) [BICALUTAMIDE]: < 5.99

---

- System: RD
- experiment_summary: cells
- Format: functional, cell-based
- details: Homo sapiens
- Description: SANGER: Inhibition of human RD cell growth in a cell viability assay.
measurement_type: IC50 (nM)

CC[C@]1(O)C[C@@H]2CN(CCc3c([nH]c4ccccc34)[C@@](C(=O)OC)(c3cc4c(cc3OC)N(C)[C@H]3[C@@](O)(C(=O)OC)[C@H](OC(C)=O)[C@]5(CC)C=CCN6CC[C@]43[C@@H]65)C2)C1: 4.17
CC[C@@]1(O)C(=O)OCc2c1cc1n(c2=O)Cc2cc3ccccc3nc2-1: 15.7
C/C=C(/C)C(=O)O[C@H]1C(C)=C2[C@H]([C@@H]1OC(=O)CCCCCCC)[C@@](C)(OC(C)=O)C[C@H](OC(=O)CCC)[C@@]1(O)[C@H]2OC(=O)[C@@]1(C)O: 7.35
